Documented inhibition at 50 µg/mL across a set of compounds
tested on: Alternaria solani; assay: Fungicidal activity, fungi growth rate method, AS; assay type: cell-based; conditions: Alternaria solani; 50 μg/mL; read-out: Fungicidal activity (inhibition) against AS: Alternaria solani
readout name: inhibition at 50 µg/mL

> print(dat)
                                   compound        measured.on  result
1  O=C(N/C(=C\c1ccccc1)C(=O)N1CCOCC1)c1ccccc1  Alternaria solani   < 30%
2  O=C(N/C(=C\c1cccs1)C(=O)N1CCC(O)(c2ccc(Br)cc2)CC1)c1ccccc1  Alternaria solani   < 30%
3  O=C(NCc1ccccc1)/C(=C/c1ccccc1)NC(=O)c1ccccc1  Alternaria solani   < 30%
4  O=C(N/C(=C\c1ccccc1)C(=O)N1CCC(O)(c2ccc(Br)cc2)CC1)c1ccccc1 [Compound 76, reference compound]  Alternaria solani     14%
5          Cc1snnc1/C=C1\N=C(c2ccccc2)OC1=O  Alternaria solani     29%
6  O=C(NC1CCCCC1)/C(=C/c1ccccc1)NC(=O)c1ccccc1  Alternaria solani   < 30%
7      CNC(=O)/C(=C/c1ccccc1)NC(=O)c1ccccc1  Alternaria solani   < 30%

The measurements presented in this section are drawn from patent US11166460B2.
